Overview of reported IC50 across a group of compounds:
- System name: PAK4 (Homo sapiens, UniProt O96013)
- Sequence (O96013 whole entry): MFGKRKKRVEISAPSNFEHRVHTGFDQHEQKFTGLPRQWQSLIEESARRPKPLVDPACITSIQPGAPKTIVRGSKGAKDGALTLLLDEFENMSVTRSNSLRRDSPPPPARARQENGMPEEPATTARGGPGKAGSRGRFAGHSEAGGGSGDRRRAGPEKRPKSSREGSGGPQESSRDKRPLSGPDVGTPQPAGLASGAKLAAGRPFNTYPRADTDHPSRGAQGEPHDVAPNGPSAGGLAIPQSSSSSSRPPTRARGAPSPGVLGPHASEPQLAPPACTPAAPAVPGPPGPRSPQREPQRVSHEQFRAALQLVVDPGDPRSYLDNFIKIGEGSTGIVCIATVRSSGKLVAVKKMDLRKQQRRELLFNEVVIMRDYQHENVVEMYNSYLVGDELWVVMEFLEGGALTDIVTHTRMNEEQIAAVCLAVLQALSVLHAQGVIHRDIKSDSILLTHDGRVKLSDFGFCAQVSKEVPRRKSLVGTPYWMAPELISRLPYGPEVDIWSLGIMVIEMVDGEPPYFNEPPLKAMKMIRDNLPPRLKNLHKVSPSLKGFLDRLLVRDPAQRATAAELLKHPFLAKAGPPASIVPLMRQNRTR
- Test: Z'Lyte fluorescence-based (FRET) PAK kinase assay, PAK4
- Type: biochemical
- Measurement setup: Table 1 of Example 100; 5 μM ATP

Compound | IC50
CN1CCN(c2ccc(Nc3ncc4ccc(=O)n(C5CCc6ccccc65)c4n3)cc2)CC1 (stereo not shown) | 1 to 10 µM
O=c1ccc2cnc(Nc3ccc(N4CCNCC4)c(F)c3)nc2n1C1Cc2ccccc2C1 | < 1 µM
CN1CCN(c2ccc(Nc3ncc4ccc(=O)n(Cc5ccncc5)c4n3)cc2)CC1 | > 10 µM
COc1cccc(Cn2c(=O)ccc3cnc(Nc4ccc(N5CCN(C)CC5)cc4)nc32)c1 | > 10 µM
Cc1ccc(C)c(Cn2c(=O)ccc3cnc(Nc4ccc(N5CCN(C)CC5)cc4)nc32)c1 | 1 to 10 µM
CC(c1ccccc1)n1c(=O)ccc2cnc(Nc3ccc(N4CCN(C)CC4)cc3)nc21 (stereo not shown) | 1 to 10 µM
CN1CCN(c2ccc(Nc3ncc4ccc(=O)n(CCc5ccccc5)c4n3)cc2)CC1 | < 1 µM
CN1CCN(c2ccc(Nc3ncc4ccc(=O)n(Cc5ccccc5SC(F)(F)F)c4n3)cc2)CC1 | < 1 µM
CN1CCN(c2ccc(Nc3ncc4ccc(=O)n(Cc5cccc(F)c5)c4n3)cc2)CC1 | 1 to 10 µM
O=c1ccc2cnc(Nc3ccc(OC4CCCNC4)cc3)nc2n1Cc1ccccc1C(F)(F)F (stereo not shown) | < 1 µM
CN1CCN(c2ccc(Nc3ncc4ccc(=O)n(Cc5ccccc5C(F)(F)F)c4n3)cc2)CC1 | < 1 µM
CN(c1ccc(Nc2ncc3ccc(=O)n(Cc4ccccc4C(F)(F)F)c3n2)cc1)C1CCCNC1 (stereo not shown) | < 1 µM
O=c1ccc2cnc(Nc3ccc(NC4CCCNC4)cc3)nc2n1Cc1ccccc1C(F)(F)F (stereo not shown) | < 1 µM
CSc1cccc(F)c1Cn1c(=O)ccc2cnc(Nc3ccc(N4CCN(C)CC4)cc3)nc21 | < 1 µM
O=c1ccc2cnc(Nc3ccc(NC4CCNCC4)cc3)nc2n1Cc1ccccc1C(F)(F)F | < 1 µM
CN1CCN(c2ccc(Nc3ncc4ccc(=O)n(Cc5c(F)cccc5C(F)(F)F)c4n3)cc2)CC1 | < 1 µM
